Data origin: PubChem BioAssay

test: S. cerevisiae growth modulation with rapamycin, primary screen, strain BY4716, OD600, 96 h (AID 1091); settings: higher = more signal, called active from +8 up or from −8 down; note: test concentration not given here
Listed below: z-score values for each entry.

Compound | z-score
COCCOC(=O)N1C(=O)[C@@]2(c3cc(C#CCCO)ccc31)[C@H](c1ccc(O)cc1)N1[C@H](c3ccccc3)[C@H](c3ccccc3)OC(=O)[C@H]1[C@@H]2C(N)=O | 0.418
C=CCNC(=O)[C@H]1[C@@H]2C(=O)O[C@@H](c3ccccc3)[C@@H](c3ccccc3)N2[C@@H](c2ccc(O)cc2)[C@]12C(=O)N(C(=O)OCCOC)c1ccc(C#CCCO)cc12 | 0.804
CN(C)C(=O)[C@@]1(CCC(=O)OC(C)(C)C)N=C(c2ccc(OCCCO)cc2)O[C@H]1c1ccccc1 | -0.213
COC(=O)C[C@H]1O[C@]2(C(=O)N(Cc3ccccc3)c3ccc(NC(C)=O)cc32)[C@@H](C)[C@@H]1[Si](C)(C)c1ccc(OC)cc1 | 2.53
COc1cc2c(cc1O)C(C)N(Cc1cccc(OC(F)(F)F)c1)CC2 (stereo unspecified) | -1.09
CCOC(=O)C[C@H]1[C@H](OC(=O)Cc2ccc3c(c2)OCO3)[C@@H](NC(=O)c2ccc(-c3ccccc3)cc2)c2cc(OCCCO)ccc2N1C(=O)c1ccccc1 | 0.712

----------
Listed below: z-score values for each entry.
assay: E. coli growth modulation, two-sided OD650, primary screen, E. coli filamentation project, strain DRC41, 24 h (AID 1093); details: OD650, 24 h, higher = more signal, called active from +8 up or from −8 down;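 note: MC1000 strain lacking acrAB efflux and sulA so SOS filamentation is blocked; test concentration not given here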
Property measured: z-score

Compound | Recorded value
O=C1O[C@@H](c2ccccc2)[C@@H](c2ccccc2)N2[C@@H](c3ccc(O)cc3)[C@]3(C(=O)Nc4ccc(C#CC5=CCCCC5)cc43)[C@@H](C(=O)O)[C@H]12 | 3.68
COC(=O)[C@@]1(Cc2ccc(OC)cc2)[C@H]2c3cc(C(=O)N(C)C)n(Cc4c(OC)[nH]cc(C)c4=O)c3C[C@H]2CN1C(=O)c1ccccc1 | -0.252
CC(C)c1ccc(NN2C(C(O)c3cccc(O)c3)C=CC3C(=O)N(c4ccccc4)C(=O)C32)cc1 (configuration not stated) | -0.416
COC(=O)[C@@]1(Cc2ccccc2N=[N+]=[N-])COC(c2ccc(OCCCO)cc2)=N1 | -0.574
CC=CC(O)C1C=CC2C(=O)N(c3ccccc3)C(=O)C2N1Nc1ccc(C(C)C)cc1 (configuration not stated) | -1.71
[N-]=[N+]=NCc1ccccc1C[C@]1(C(=O)O)N=C(c2ccc(OCCCO)cc2)O[C@H]1c1ccccc1 | 0.279
COC(=O)[C@@]1(Cc2ccc(OC)cc2)[C@H]2c3cc(C(=O)N4CCCC4)n(CCc4c[nH]c5cc(F)ccc45)c3C[C@H]2CN1C(=O)c1ccccc1 | 0.332

----------
experiment: osmotic lysis modulators in infected erythrocytes, primary screen, PSAC antagonist project, cell-based, P. falciparum Indochina, OD700, 3 h (AID 1156); conditions: higher = more signal, called active from +8 up or from −8 down
Everything with z-score lower than -0.2 is Condition not met; everything else, including exactly -0.2, is Condition met.

Compound | Cat
COC(=O)c1ccc(OC)c(/C=C\CC(OC(C)=O)c2ccccc2)c1 (stereo not given) | Condition not met
C[N+](C)(C)CCCCCCNC(=O)[C@H]1C[C@H]2C(=O)N3CCC[C@H]3C(=O)N2[C@H]1c1ccc(O)cc1 | Condition not met
CCC[C@@H]1C=C(C(=O)O)[C@H](c2ccc(C)cc2)N1S(=O)(=O)c1ccc(C)cc1 | Condition not met
CC(C)CNC(=O)[C@@]1(c2ccc([N+](=O)[O-])cc2)CC(=O)N(CC23CC4CC(CC(C4)C2)C3)[C@@H]1c1ccc(CO)cc1 | Condition met
COCC(=C=CC[C@H](O)c1ccc(OCCO)cc1)C[C@H](O)c1cc(Cl)cc(Cl)c1O | Condition not met

----------
biological target: Left-right determination factor 2 (Homo sapiens); assay: LEFTY2 binders on small-molecule microarrays, primary screen, biochemical, small-molecule microarray, 635 nm fluorescence scan (AID 1110); details: LEFTY2 binding, higher = more signal
Everything with composite z-score lower than -0.6 is No; everything else, including exactly -0.6, is Yes.

Compound | Cat
COC(=O)c1ccc(C(O)C2C=CC3C(=O)N(C)C(=O)C3N2NC(=O)OC(C)(C)C)o1 (configuration not stated) | Yes
CC(C)C[C@@H]1NC(=O)[C@@H]2C[C@H](C(=O)NCCCCCC[N+](C)(C)C)[C@H](c3ccc(O)cc3)N2C1=O | Yes
CC(C)(C)N1CC=CC23O[C@@H]4/C=C\CCCOC(=O)C4[C@H]2C(=O)N(CCO)[C@@H]3C1=O (some centres not stated) | No
COc1ccc(CCN2C(=O)[C@@]3(Cc4ccccc42)c2ccccc2C(=O)N(Cc2ccccc2Cl)[C@H]3c2ccc(CO)cc2)cc1 | No
Cc1ccc(S[C@]2(C(=O)NCC(C)C)CC(=O)N(Cc3ccccc3Cl)[C@@H]2c2ccc(CO)cc2)cc1 | No
COCCCNC(=O)[C@@]1(C)c2ccccc2C(=O)N(Cc2cc(C(F)(F)F)cc(C(F)(F)F)c2)[C@H]1c1ccc(CO)cc1 | No
COC(=O)[C@@]1(Cc2ccc(OC)cc2)[C@H]2c3cc(C(=O)N4CCCC4)n(CCc4c[nH]c5cc(F)ccc45)c3C[C@H]2CN1C(=O)c1ccccc1 | Yes

----------
system: Wnt5a (protein binding on small-molecule microarray); test: Wnt5a binders on small-molecule microarray, primary screen, biophysical, 635/667 nm fluorescence (AID 1142); settings: 635 nm fluorescence, higher = more signal;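 note: fluorescence read at 667 nm with signal to noise per printed feature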

Compound | Target | composite z-score
C=C(COC)/C(=C/C[C@H](OC(=O)c1ccncc1)c1cccc(OCCO)c1)c1cc(C(=O)OC)ccc1OC | Wnt5a (protein binding on small-molecule microarray) | 0.176
COc1ccc([Si](C)(C)[C@@H]2[C@@H](CC(=O)N(CCO)Cc3ccccc3)O[C@]3(C(=O)N(C)c4ccccc43)[C@H]2C)cc1 | Wnt5a (protein binding on small-molecule microarray) | 0.205
C=C[C@H](C)[C@@H](O)c1ccc(O)c2ccccc12 | Wnt5a (protein binding on small-molecule microarray) | -0.302
C=C[C@@H](COC(C)=O)N(Cc1ccccc1[N+](=O)[O-])S(=O)(=O)c1ccc(Br)cc1 | Wnt5a (protein binding on small-molecule microarray) | 0.521
O=C1C2C=CC(C(O)c3ccc(B(O)O)cc3)N(Nc3ccccc3)C2C(=O)N1c1ccccc1 (stereo not given) | Wnt5a (protein binding on small-molecule microarray) | -0.0341
COC(=O)[C@@]1(Cc2ccc(OC)cc2)[C@H]2c3cc(C(=O)N4CCCC4)n(Cc4cc(F)cc5c4OCOC5)c3C[C@H]2CN1C(=O)c1ccccc1 | Wnt5a (protein binding on small-molecule microarray) | 0.605
CCOC(=O)C1=CCC(C(C)(C)C)N(S(=O)(=O)c2ccc(C)cc2)C1 (stereo not given) | Wnt5a (protein binding on small-molecule microarray) | 0.858
CC(C)C[C@@H]1NC(=O)[C@H]2C[C@@H](C(=O)NCCCCCCNC(=O)CS)[C@@H](c3cccc(OCCO)c3)N2C1=O | Wnt5a (protein binding on small-molecule microarray) | 1.35
C=CCC(OC(C)=O)[C@@H]1[C@@H](N(Cc2ccc(-c3cccc(C(F)(F)F)c3)o2)C(=O)c2ccc(C)cc2)c2cc(OCCCO)ccc2N1C(=O)c1ccc(-c2ccccc2)cc1 (stereo not given in full) | Wnt5a (protein binding on small-molecule microarray) | 0.0167
COc1ccc(C(=O)Nc2cccc(CN3C(=O)[C@]4(O[C@H](CC(=O)N5CCC[C@H]5CO)[C@@H]([Si](C)(C)c5ccc(OC)cc5)[C@@H]4C)c4ccccc43)c2)cc1 | Wnt5a (protein binding on small-molecule microarray) | 0.278
CN(C)CCCCCCNC(=O)[C@H]1C[C@H]2C(=O)N[C@@H](CCCCN)C(=O)N2[C@H]1c1ccc(O)cc1 | Wnt5a (protein binding on small-molecule microarray) | 1.79
Cc1ccc(S[C@]2(C(=O)NCc3ccccc3)CC(=O)N(Cc3ccccc3)[C@@H]2c2ccc(CO)cc2)cc1 | Wnt5a (protein binding on small-molecule microarray) | -0.202
COc1ccc(CCNC(=O)[C@@H]2c3ccccc3C(=O)N(Cc3ccc(OC(F)(F)F)cc3)[C@H]2c2ccc(CO)cc2)cc1 | Wnt5a (protein binding on small-molecule microarray) | 0.446
CC(C)C(=C=CC[C@H](O)c1cccc(OCCO)c1)C[C@H](O)COCc1ccccc1 | Wnt5a (protein binding on small-molecule microarray) | 0.148
CC(C)c1ccc(NN2C(C(O)c3ccc(N(C)C)cc3)C=CC3C(=O)N(c4ccccc4)C(=O)C32)cc1 (stereo not given) | Wnt5a (protein binding on small-molecule microarray) | 0.125
